Data provenance is BigSolDB 2.1.

# EXPERIMENTAL SETUP: in n-propanol, 323.15 K
MEASURED PARAMETER: solubility (mole fraction)
Reply with just the number.

# input Dear colleague, I am looking for the recorded solubility (mole fraction) of the following molecule: NC(=O)c1ccc([N+](=O)[O-])cc1
# output 0.00447

----------
# EXPERIMENTAL SETUP: in DMF, 288.15 K
MEASURED PARAMETER: solubility (mole fraction)
The response must contain the number and no unit.

# input What does the record list as solubility (mole fraction) for NC(=O)c1ccc([N+](=O)[O-])cc1 ?
# output 0.0416

----------
# EXPERIMENTAL SETUP: in ethyl acetate, 288.15 K
MEASURED PARAMETER: solubility (mole fraction)
Output spec: single numeric token, no unit.

# input Which solubility (mole fraction) value is on record for NC(=O)c1ccc([N+](=O)[O-])cc1 ?
# output 0.00236
